The reported measurements were obtained from patent US20090036821A1.

Experiment: Conductivity of donor solution
Type: physicochemical
Details: donor solution for iontophoresis, donor pH 5.5, 50 mM HEPES
Counter-ions that a name gives are not always drawn.
The entries below are paired with their reported Conductivity.
Reply numerically in mS/cm, unit not repeated.

>  <compound>
CN1CCC[C@H]1c1cccnc1 [HCl, nicotinium dihydrochloride]

>  <unit_descriptor>
mS/cm

>  <measured_result>
15.4

$$$$
>  <compound>
Br.Br.CN1CCCC1c1cccnc1 (stereo not drawn)

>  <unit_descriptor>
mS/cm

>  <measured_result>
25.9

$$$$
>  <compound>
CN1CCCC1c1cccnc1.O=C(O)/C=C\C(=O)O (stereo not drawn) [Maleate, nicotine maleate]

>  <unit_descriptor>
mS/cm

>  <measured_result>
9.31

$$$$
>  <compound>
CN1CCCC1c1cccnc1.O=S(=O)(O)O.O=S(=O)(O)O (stereo not drawn)

>  <unit_descriptor>
mS/cm

>  <measured_result>
20

$$$$
>  <compound>
CN1CCCC1c1cccnc1.O=C(O)CC(O)(CC(=O)O)C(=O)O [Citrate, nicotine citrate]

>  <unit_descriptor>
mS/cm

>  <measured_result>
13.3

$$$$

Okay, next one:
Which Conductivity is listed for CN1CCCC1c1cccnc1.O=C(O)C(O)C(O)C(=O)O (stereo not drawn) [Bitartrate, nicotine bitartrate] ?
16.3

* * *

Documented Flux across a set of compounds
Settings: iontophoresis (ITP), donor pH 5.5, 50 mM HEPES, steady state when current is present, 0.5 mA/sq.cm
Counter-ions that a name gives are not always drawn.
Expressed in mg/cm^2-hr, but write only the number.

The cases that follow already have their Flux on record.
>  <compound>
CN1CCCC1c1cccnc1.O=C(O)CC(O)(CC(=O)O)C(=O)O [Citrate, nicotine citrate]

>  <measured_result>
0.332

$$$$
>  <compound>
CN1CCC[C@H]1c1cccnc1 [HCl, nicotinium dihydrochloride]

>  <measured_result>
0.2236

$$$$
>  <compound>
CN1CCCC1c1cccnc1.O=S(=O)(O)O.O=S(=O)(O)O (stereo not drawn) [SO4]

>  <measured_result>
0.2554

$$$$

Can you look up the measured Flux of Br.Br.CN1CCCC1c1cccnc1 (stereo not drawn) [HBr] for me?
0.2771

# input compound: CN1CCCC1c1cccnc1.O=C(O)/C=C\C(=O)O (stereo not drawn) [Maleate, nicotine maleate] ; wanted: its Flux
0.2867

Endpoint output: Flux of CN1CCCC1c1cccnc1.O=C(O)C(O)C(O)C(=O)O (stereo not drawn) [Bitartrate, nicotine bitartrate] . Value?
0.2073

* * *

Conditions: iontophoresis (ITP), donor pH 5.5, 50 mM HEPES
Counter-ions that a name gives are not always drawn.
Entries and their Lagtime
Respond numerically; units are min and should not be typed.

Use the examples below as a reference point.
>  <compound>
CN1CCCC1c1cccnc1.O=S(=O)(O)O.O=S(=O)(O)O (stereo not drawn) [SO4]

>  <Lagtime, min>
46

$$$$
>  <compound>
CN1CCCC1c1cccnc1.O=C(O)/C=C\C(=O)O (stereo not drawn) [Maleate, nicotine maleate]

>  <Lagtime, min>
4

$$$$
>  <compound>
CN1CCC[C@H]1c1cccnc1 [HCl, nicotinium dihydrochloride]

>  <Lagtime, min>
22

$$$$
>  <compound>
Br.Br.CN1CCCC1c1cccnc1 (stereo not drawn) [HBr]

>  <Lagtime, min>
63

$$$$
>  <compound>
CN1CCCC1c1cccnc1.O=C(O)C(O)C(O)C(=O)O (stereo not drawn) [Bitartrate, nicotine bitartrate]

>  <Lagtime, min>
10

$$$$

# evaluate next
# input compound: CN1CCCC1c1cccnc1.O=C(O)CC(O)(CC(=O)O)C(=O)O [Citrate, nicotine citrate] ; wanted: its Lagtime
9
